Value source: patent US20250313535A1

MEASURED TARGET: α4β7 integrin (Homo sapiens (Human), UniProt P13612+P26010)
Sequence (P13612 34-1032): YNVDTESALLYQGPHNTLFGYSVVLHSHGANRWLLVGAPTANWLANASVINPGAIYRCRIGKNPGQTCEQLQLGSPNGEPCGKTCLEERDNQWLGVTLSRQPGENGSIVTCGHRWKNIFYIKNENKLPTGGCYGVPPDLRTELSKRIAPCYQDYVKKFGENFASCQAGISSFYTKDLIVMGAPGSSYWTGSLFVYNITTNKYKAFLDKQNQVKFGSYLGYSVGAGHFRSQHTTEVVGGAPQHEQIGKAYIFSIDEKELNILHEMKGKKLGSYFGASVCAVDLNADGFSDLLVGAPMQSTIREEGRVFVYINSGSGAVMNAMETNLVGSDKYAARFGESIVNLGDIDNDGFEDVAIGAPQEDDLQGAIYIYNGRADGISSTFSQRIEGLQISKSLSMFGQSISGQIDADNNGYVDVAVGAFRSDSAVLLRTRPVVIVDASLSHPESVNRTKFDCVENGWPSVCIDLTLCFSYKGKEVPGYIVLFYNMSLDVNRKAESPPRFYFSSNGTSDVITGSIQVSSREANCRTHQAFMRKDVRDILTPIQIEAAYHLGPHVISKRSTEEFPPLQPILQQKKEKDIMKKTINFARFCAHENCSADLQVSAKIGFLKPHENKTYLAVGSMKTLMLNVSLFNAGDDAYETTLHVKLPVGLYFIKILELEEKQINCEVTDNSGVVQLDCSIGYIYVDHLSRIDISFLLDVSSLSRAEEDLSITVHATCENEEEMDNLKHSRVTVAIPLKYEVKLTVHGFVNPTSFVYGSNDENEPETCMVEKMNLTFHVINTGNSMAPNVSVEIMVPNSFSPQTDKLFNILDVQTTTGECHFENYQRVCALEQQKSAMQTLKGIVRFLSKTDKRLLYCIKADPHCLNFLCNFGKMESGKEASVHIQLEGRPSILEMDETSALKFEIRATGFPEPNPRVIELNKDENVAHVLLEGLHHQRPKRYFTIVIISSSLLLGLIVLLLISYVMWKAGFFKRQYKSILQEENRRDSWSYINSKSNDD
Sequence (P26010 20-798): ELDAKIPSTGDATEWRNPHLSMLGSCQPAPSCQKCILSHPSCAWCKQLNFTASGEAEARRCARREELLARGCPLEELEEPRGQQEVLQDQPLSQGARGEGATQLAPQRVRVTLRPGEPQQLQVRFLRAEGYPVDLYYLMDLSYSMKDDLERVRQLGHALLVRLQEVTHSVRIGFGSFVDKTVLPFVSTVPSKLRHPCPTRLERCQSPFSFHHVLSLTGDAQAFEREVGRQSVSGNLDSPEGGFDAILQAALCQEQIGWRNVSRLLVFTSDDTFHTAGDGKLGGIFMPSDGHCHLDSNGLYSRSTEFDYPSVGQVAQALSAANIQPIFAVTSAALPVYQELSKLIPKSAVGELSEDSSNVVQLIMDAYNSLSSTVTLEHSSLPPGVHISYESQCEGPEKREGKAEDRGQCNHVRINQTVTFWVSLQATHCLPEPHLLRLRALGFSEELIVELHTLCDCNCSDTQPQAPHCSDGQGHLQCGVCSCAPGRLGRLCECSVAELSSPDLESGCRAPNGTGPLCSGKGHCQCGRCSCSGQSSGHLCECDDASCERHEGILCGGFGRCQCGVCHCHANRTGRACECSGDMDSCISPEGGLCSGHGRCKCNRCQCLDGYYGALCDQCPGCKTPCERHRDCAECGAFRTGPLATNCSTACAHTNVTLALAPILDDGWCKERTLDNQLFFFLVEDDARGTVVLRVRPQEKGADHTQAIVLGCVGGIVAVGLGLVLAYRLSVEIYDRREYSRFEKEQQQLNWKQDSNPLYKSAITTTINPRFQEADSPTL
PROCEDURE SUMMARY: Integrin Adhesion Assay: Protocol 4 (MAdCAM-coated plate, RPMI-8866 cells with stable LOF mutation of the ITGB1 gene)
Type: cell-based
REPORTED CONDITIONS: RPMI-8866 cells with stable LOF mutation of the ITGB1 gene; read-out: Mean IC50 α4β7 KO^a
Provide the reported IC50 of each item.

GET /values?readout=IC50&item= CCOCc1cc(OC)c(-c2cccc3c(C[C@H](NC(=O)C4(C(F)(F)F)CCN(CC(F)(F)F)CC4)C(=O)O)cccc23)c(OC)c1
< 10 nM

Report IC50 for Cn1c(=O)c(-c2cccc3c(C[C@H](NC(=O)C4(C(F)(F)F)CCN(C5CCOC5(C)C)CC4)C(=O)O)cccc23)c(C(F)(F)F)c2ccccc21 (some centres unmarked) please.
10 to 100 nM

Could you share which IC50 value was measured for CN(C)c1ccc2c(c1)c(C(F)(F)F)c(-c1cccc3c(C[C@H](NC(=O)C4(C(F)(F)F)CCN(CC(F)(F)F)CC4)C(=O)O)cccc13)c(=O)n2C ?
10 to 100 nM

# input compound: CN(C)Cc1cccc2c(-c3cccc4c(C[C@H](NC(=O)C5(C(F)(F)F)CCN(CC(F)(F)F)CC5)C(=O)O)cccc34)nccc12 ; wanted: its IC50
< 10 nM

May I ask what IC50 has been recorded for Cn1c(=O)c(-c2cccc3c(C[C@H](NC(=O)[C@]4(C(F)(F)F)CC[C@H](N5CCOC[C@@H]5C(F)(F)F)CC4)C(=O)O)cccc23)c(C(F)(F)F)c2ccccc21 ?
100 to 1000 nM

I am curious: what IC50 value has been reported for Cn1c(=O)c(-c2cccc3c(C[C@H](NC(=O)c4c(F)cc(N5CCOC(CN6CCCC6)C5)cc4F)C(=O)O)cccc23)c(C(F)(F)F)c2ccccc21 (some centres unmarked) ?
100 to 1000 nM

Given the compound COc1ccc(CN2CCCC(C)(C)C2)c(OC)c1-c1cccc2c(C[C@H](NC(=O)c3c(C)cccc3F)C(=O)O)cccc12 , what is its reported IC50?
< 10 nM

Would you kindly share the measured IC50 for COc1cc2c(c(C(F)(F)F)c1-c1cccc3c(C[C@H](NC(=O)C4(C(F)(F)F)CCN(CC(F)(F)F)CC4)C(=O)O)cccc13)CCN(CC(F)(F)F)C2 ?
10 to 100 nM

What does the record list as IC50 for Cn1c(=O)c(-c2cccc3c(C[C@H](NC(=O)C4(C(F)(F)F)CCN(C5CCOC(C(F)(F)F)C5)CC4)C(=O)O)cccc23)c(C(F)(F)F)c2ccccc21 (some centres unmarked) ?
10 to 100 nM

Can you look up the measured IC50 of Cn1c(=O)c(-c2cccc3c(C[C@H](NC(=O)[C@]4(C)CC[C@@H](N5CCS(=O)(=O)CC5)CC4)C(=O)O)cccc23)c(C(F)(F)F)c2ccccc21 [Compound 404] for me?
100 to 1000 nM

Data request, read-out IC50, for O=C(O)[C@H](Cc1cccc2c(-c3ncc(CN4CCCCC4)c4ccccc34)cccc12)NC(=O)C1(C(F)(F)F)CCNCC1
10 to 100 nM

Return reported IC50; argument: COc1cccc(CN2CCCCC2)c1-c1cccc2c(C[C@H](NC(=O)c3c(F)cccc3C3CC3)C(=O)O)cccc12
< 10 nM

Record request: IC50 value, item COc1ccc(CN2CCCC(C)C2)c(OC)c1-c1cccc2c(C[C@H](NC(=O)c3c(C)cccc3F)C(=O)O)cccc12 (some centres unmarked)
< 10 nM

For the compound shown here, O=C(O)[C@H](Cc1cccc2c(-c3nccc4c(CN5CCCCC5)cccc34)cccc12)NC(=O)C1(C(F)(F)F)CCN([C@H]2COCC2(F)F)CC1 , give the reported IC50.
< 10 nM

Query (compound): CN(C)CC1CN(c2cc(F)c(C(=O)N[C@@H](Cc3cccc4c(-c5c(C(F)(F)F)c6ccccc6n(C)c5=O)cccc34)C(=O)O)c(F)c2)CCO1 (some centres unmarked) ; field requested: IC50
100 to 1000 nM

// query IC50 value for entry Cn1c(=O)c(-c2cccc3c(C[C@H](NC(=O)C4(C(F)(F)F)CCN(C5CCS(=O)(=O)CC5)CC4)C(=O)O)cccc23)c(C(F)(F)F)c2ccccc21
10 to 100 nM

Could you tell me which IC50 is on file for COc1ccc(CN2CCC(F)(F)CC2)c(OC)c1-c1cccc2c(C[C@H](NC(=O)c3c(C)cc(C45CCOCC4C5)cc3F)C(=O)O)cccc12 (some centres unmarked) ?
10 to 100 nM

For the compound shown here, O=C(O)[C@H](Cc1cccc2c(-c3nccc4c(CN5CC(F)C5)cccc34)cccc12)NC(=O)C1(C(F)(F)F)CCN(CC(F)(F)F)CC1 , give the reported IC50.
< 10 nM

Returns the measured IC50 for the input compound. Input: Cn1c(=O)c(-c2cccc3c(C[C@H](NC(=O)C4(C(F)(F)F)CCN(C5CCOCC5C(F)(F)F)CC4)C(=O)O)cccc23)c(C(F)(F)F)c2ccccc21 (some centres unmarked)
10 to 100 nM

IC50 for Cn1c(=O)c(-c2cccc3c(C[C@H](NC(=O)c4c(F)cc(N5CCCCC5)cc4F)C(=O)O)cccc23)c(C(F)(F)F)c2ccccc21 ?
100 to 1000 nM

Entry Cn1c(=O)c(-c2cccc3c(C[C@H](NC(=O)C4(C)CC5(CN(CC(F)(F)F)C5)C4)C(=O)O)cccc23)c(C(F)(F)F)c2ccccc21 : reported IC50 = ?
100 to 1000 nM

Recorded IC50 for Cn1c(=O)c(-c2cccc3c(C[C@H](NC(=O)c4c(F)cc(C5CCCOC5)cc4F)C(=O)O)cccc23)c(C(F)(F)F)c2ccccc21 (some centres unmarked) , please?
100 to 1000 nM

Give its IC50 value. Item: Cc1cccc(F)c1C(=O)N[C@@H](Cc1cccc2c(-c3c(C(F)(F)F)c4ccccc4n(C)c3=O)cccc12)C(=O)O
10 to 100 nM
